Each record here notes measured Percent Disease Control, Test B.
- Test system: Phytophthora infestans (the causal agent of tomato late blight)
- assay-notes: whole plant or invertebrate
- Format: in vivo
- setup-conditions: ** tested at l0 ppm
quantity-kind: Percent Disease Control, Test B (%)

- molecule: "C[C@]1(c2ccccc2)CC(c2csc(C3CCN(C(=O)Cn4nc(C(F)(F)F)cc4C(F)(F)F)CC3)n2)=NO1"
  u: "%"
  reported: 100
- molecule: "Cc1cc(C(F)(F)F)nn1CC(=O)N1CCC(c2nc(C3=NOC(n4c(=O)n(C)c5ccccc54)C3)cs2)CC1 (stereo not drawn)"
  u: "%"
  reported: 100
- molecule: "O=C(Cn1nc(C(F)(F)F)cc1C(F)(F)F)N1CCC(c2nc(C3=NO[C@]4(CCc5ccccc54)C3)cs2)CC1 (racemic)"
  u: "%"
  reported: 100
- molecule: "Cc1cc(C(F)(F)F)nn1CC(=O)N1CCC(c2nc(-c3cc(-c4ccccc4)no3)cs2)CC1"
  u: "%"
  reported: 57
- molecule: "O=C(Cn1nc(C(F)(F)F)cc1Cl)N1CCC(c2nc(C3=NO[C@]4(CCc5ccccc54)C3)cs2)CC1"
  u: "%"
  reported: 100
- molecule: "O=C(Cn1nc(Cl)cc1Cl)N1CCC(c2nc(C3=NOC(c4ccccc4)C3)cs2)CC1 (stereo not drawn)"
  u: "%"
  reported: 100
- molecule: "Cc1cc(C(F)(F)F)nn1CC(=O)N1CCC(c2nc(C3=NOC(n4c(=O)sc5ccc(Cl)cc54)C3)cs2)CC1 (stereo not drawn)"
  u: "%"
  reported: 100
- molecule: "Cc1cc(C(F)(F)F)nn1CC(=O)N1CCC(c2nc(C3=NOC(c4ccccc4)C3)cs2)CC1 (single isomer, unassigned)"
  u: "%"
  reported: 100
- molecule: "Cc1cc(C)n(CC(=O)N2CCC(c3nc(C4=NO[C@]5(CCc6ccccc65)C4)cs3)CC2)n1"
  u: "%"
  reported: 100
- molecule: "Cc1cc(C(F)(F)F)nn1CC(=O)N1CCC(c2nc(C3=NOC(N4C(=O)CCCC4=O)C3)cs2)CC1 (stereo not drawn)"
  u: "%"
  reported: 100
- molecule: "Cc1cc(C(F)(F)F)nn1CC(=O)N1CCC(c2nc(C3=NC(c4ccccc4)CO3)cs2)CC1 (stereo not drawn)"
  u: "%"
  reported: 83
- molecule: "Cc1cc(C(F)(F)F)nn1CC(=O)N1CCC(c2nc(C3=NOC(c4ccsc4)C3)cs2)CC1 (stereo not drawn)"
  u: "%"
  reported: 100
